Field: protein stability index. Provide a value for each of the variants that follow.
B1: GFOD1 (parent)
chain: SDDFCTFQMVLEGGVCCTVTLNFN

Variants of: B1
Experiment: protein stability index of a GFP-peptide fusion (GPS, HEK-293T) (PSI 1-6); higher = more stable;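 note: lentivirally expressed fusions sorted by FACS into six bins by GFP to DsRed ratio, PSI derived from sequencing read proportions per bin multiplied by bin number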
Condition: c terminus: a fixed tail appended
Answers are plain numbers.

SDDFCTFQMVLEGGVCFTVTLNFN    3.18
SDDRCTFQMVLEGGVCCTVTLNFN    3.19

Please report protein stability index for every entry that follows.
1. SDDFCTFNMVLEGGVCCTVTLNFN
2. SDDFCTFQMVLEGGVGCTVTLNFN
3. SDDFCTFRMVLEGGVCCTVTLNFN

Resp:
1. 2.13
2. 3.63
3. 4.3

# batch: return protein stability index for each of the 2 variants below
1. SDDFCTFQIVLEGGVCCTVTLNFN
2. SDDFCTFQMVLERGVCCTVTLNFN

Resp:
3.34
3.71

Quick batch: protein stability index for everything below.
1. SDDFLTFQMVLEGGVCCTVTLNFN
2. SDDFCTFQMVLEGGVFCTVTLNFN
3. SDDFCTFQMVLEGGVCCMVTLNFN
4. SDDFCTFQMVLLGGVCCTVTLNFN

Resp:
[3.9, 1.78, 2.07, 4.46]
